Reference source: patent US20240287154A1

For each entry below, report its MC3R selectivity (relative to MC4R) value.
biological target: human MC3R (human, UniProt P41968 1-323); assay: cell-based or functional assay
Sequence (P41968 whole entry): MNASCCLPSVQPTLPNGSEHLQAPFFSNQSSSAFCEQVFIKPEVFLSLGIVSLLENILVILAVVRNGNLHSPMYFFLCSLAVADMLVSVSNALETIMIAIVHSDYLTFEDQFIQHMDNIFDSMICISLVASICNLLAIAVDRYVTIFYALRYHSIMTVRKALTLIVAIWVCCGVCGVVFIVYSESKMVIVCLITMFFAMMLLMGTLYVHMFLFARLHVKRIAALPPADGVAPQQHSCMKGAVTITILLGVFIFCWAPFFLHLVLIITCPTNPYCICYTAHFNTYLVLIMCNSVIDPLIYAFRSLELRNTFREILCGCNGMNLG
Non-standard residues stand in square brackets, D forms with d. Nle = CCCC[C@H](N)C(=O)O; dAbu = CC[C@@H](N)C(=O)O
One number for each entry.

Example results:
BINDER	READOUT_KIND	TEST_RESULT
Ac-[Nle][dA]HFR[dW]KRFG-OH (SMILES CCCC[C@H](NC(C)=O)C(=O)N[C@H](C)C(=O)N[C@@H](Cc1c[nH]cn1)C(=O)N[C@@H](Cc1ccccc1)C(=O)N[C@@H](CCCNC(=N)N)C(=O)N[C@H](Cc1c[nH]c2ccccc12)C(=O)N[C@@H](CCCCN)C(=O)N[C@@H](CCCNC(=N)N)C(=O)N[C@@H](Cc1ccccc1)C(=O)NCC(=O)O) [CTX-1533]	MC3R selectivity (relative to MC4R)	314
H-YV[Nle][dA]H[dF]R[dW]D-NH2 (SMILES CCCC[C@H](NC(=O)[C@@H](NC(=O)[C@@H](N)Cc1ccc(O)cc1)C(C)C)C(=O)N[C@H](C)C(=O)N[C@@H](Cc1c[nH]cn1)C(=O)N[C@H](Cc1ccccc1)C(=O)N[C@@H](CCCNC(=N)N)C(=O)N[C@H](Cc1c[nH]c2ccccc12)C(=O)N[C@@H](CC(=O)O)C(N)=O) [CTX-1109]	MC3R selectivity (relative to MC4R)	10.6

Exam item: Request the reported MC3R selectivity (relative to MC4R) associated with H-YV[Nle][dAbu]HFR[dW]D-NH2 (SMILES CCCC[C@H](NC(=O)[C@@H](NC(=O)[C@@H](N)Cc1ccc(O)cc1)C(C)C)C(=O)N[C@H](CC)C(=O)N[C@@H](Cc1c[nH]cn1)C(=O)N[C@@H](Cc1ccccc1)C(=O)N[C@@H](CCCNC(=N)N)C(=O)N[C@H](Cc1c[nH]c2ccccc12)C(=O)N[C@@H](CC(=O)O)C(N)=O) [CTX-1131]
Marked response: 65
